# assay target: Recombinant ROCK1 (amino acids 1-477) (Homo sapiens)
# Construct: Recombinant ROCK1 (amino acids 1-477); by word order, ROCK1 from Carna Biosciences
# Sequence (Q13464 1-477): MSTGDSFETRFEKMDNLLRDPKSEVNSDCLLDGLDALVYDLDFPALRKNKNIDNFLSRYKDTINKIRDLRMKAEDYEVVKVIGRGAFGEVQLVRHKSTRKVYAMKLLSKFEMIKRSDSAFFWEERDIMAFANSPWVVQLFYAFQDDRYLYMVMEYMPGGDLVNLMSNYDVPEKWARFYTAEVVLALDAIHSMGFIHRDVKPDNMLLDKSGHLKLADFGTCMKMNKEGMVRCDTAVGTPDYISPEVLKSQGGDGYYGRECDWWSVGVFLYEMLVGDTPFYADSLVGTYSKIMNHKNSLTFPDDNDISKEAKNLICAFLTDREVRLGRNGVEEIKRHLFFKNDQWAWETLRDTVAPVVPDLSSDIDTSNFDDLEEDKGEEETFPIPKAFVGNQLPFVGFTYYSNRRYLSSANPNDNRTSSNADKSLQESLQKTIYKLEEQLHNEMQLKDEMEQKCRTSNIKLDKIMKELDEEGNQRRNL
# protocol description: ROCK inhibition assay, LANCE Ultra TR-FRET kinase assay (ROCK1)
# condition set: 1 μM ATP, 50 nM ULight-CREBtide substrate
pIC50: −log10 of the molar value.
parameter measured: pIC50

{"columns": ["molecule", "readout value"],
 "data": [
  ["CN1CCC(CNC(=O)c2cc(F)cc(Cn3ccc4cc(N5CCOCC5)ccc4c3=O)c2)CC1 [Compound 222]", "6.30 to 7.00"],
  ["CC(=O)Nc1cccc(Cn2ccc3cc(-c4c[nH]nc4C)ccc3c2=O)c1 [Compound 336]", "6.30 to 7.00"],
  ["COc1cc(F)cc(Cn2cnc3cc(-c4c[nH]nc4C(F)F)ccc3c2=O)c1 [Compound 360]", "7.00 to 7.96"],
  ["C[C@H](c1cccc(C(=O)NCCO)c1)n1cnc2cc(-c3ccnn3C)ccc2c1=O [Compound 480]", "6.30 to 7.00"],
  ["CN1CCC(NC(=O)c2cc(F)cc(Cn3ccc4cc(-c5c[nH]nc5C(F)(F)F)ccc4c3=O)c2)CC1 [Compound 132]", "> 8.00"],
  ["NCc1ccccc1CNC(=O)c1cccc(Cn2ccc3cc(-c4ccnc(N)c4)ccc3c2=O)c1 [Compound 183]", "6.30 to 7.00"],
  ["CC(=O)Nc1cc(F)cc(Cn2ccc3cc(-c4conc4C)ccc3c2=O)c1 [Compound 351]", "6.30 to 7.00"],
  ["CC(=O)Nc1cccc(Cn2ccc3cc(-c4c[nH]nc4C(F)F)ccc3c2=O)c1 [Compound 341]", "6.30 to 7.00"],
  ["O=C(NCC1COC1)c1cccc(Cn2ccc3cc(-c4c[nH]nc4C(F)(F)F)ccc3c2=O)c1 [Compound 53]", "7.00 to 7.96"],
  ["CNC(=O)c1cccc([C@@H](C)n2cnc3cc(-c4conc4C)ncc3c2=O)c1 [Compound 572]", "6.30 to 7.00"]
]}

The reported value for [2H]C([2H])([2H])NC(=O)c1cc(F)cc(Cn2cnc3cc(-c4cn[nH]c4C(F)(F)F)ccc3c2=O)c1 [Compound 387] in terms of pIC50 is 7.00 to 7.96

The reported value for O=C(NC1CCOCC1)c1cccc(Cn2ccc3cc(-c4c[nH]nc4C(F)(F)F)ccc3c2=O)c1 [Compound 45] in terms of pIC50 is 6.30 to 7.00

The reported value for Cc1nocc1-c1ccc2c(=O)n([C@H](C)c3cccc(C(=O)NCCN4CCOCC4)c3)cnc2c1 [Compound 474] in terms of pIC50 is 7.00 to 7.96

The reported value for O=c1c2ccc(-c3ccncc3)cc2ncn1C(CO)c1cccc(Cl)c1 (stereo not shown) [Compound 483] in terms of pIC50 is 6.30 to 7.00

The reported value for Cc1nocc1-c1ccc2c(=O)n(Cc3cc(F)cc(C(=O)Nc4nc5c(s4)CCNC5)c3)ccc2c1 [Compound 157] in terms of pIC50 is 7.00 to 7.96

The reported value for CN1CCC(CNC(=O)c2cc(F)cc(Cn3ccc4cc(-c5ccnn5C)ccc4c3=O)c2)CC1 [Compound 172] in terms of pIC50 is 7.00 to 7.96
